# MEASURED_ON: T1, human CD19 protein with a biotinylated AviTag (Acrobiosystems) (human, UniProt P15391 20-291, biotinylated AviTag)
# T1 construct: Captured on streptavidin-coated microplate wells; also called biotinylated-AviTag-CD19; hCD19; not shown: AviTag
# T1 sequence (looked up): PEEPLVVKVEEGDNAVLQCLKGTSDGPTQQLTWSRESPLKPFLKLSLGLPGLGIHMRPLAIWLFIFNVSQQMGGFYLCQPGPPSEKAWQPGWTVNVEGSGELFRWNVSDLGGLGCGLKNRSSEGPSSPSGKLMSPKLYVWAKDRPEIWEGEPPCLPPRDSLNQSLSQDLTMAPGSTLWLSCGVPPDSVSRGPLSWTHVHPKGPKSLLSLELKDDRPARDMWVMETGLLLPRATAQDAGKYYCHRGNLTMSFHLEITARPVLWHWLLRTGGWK
# METHOD_DESCRIPTION: phage ELISA, biotinylated AviTag CD19 on streptavidin wells; signal ratio to FMC63 standard
READOUT: ELISA hCD19 (ratio FMC63)

| BINDER | MEASURED_VALUE |
| --- | --- |
| scFv 18 (scFv, Canine scFv (VL-linker-VH); also called P4-12) scFv: QSALTQTASVSGSLGQKVTISCTGSRSNIGANYVGWYQQVPGIGPRTVIFGYNYRPSGVPDRFSSSKSGNSATLTISGLQAEDEAEYYCSTWDSSLNAYVFGSGTQLTVLGGGSSRSSSSGGGGSGGGGEVPLVESGGDLVKPGGSLRLSCVASGFTLSNYGMSWVRQSPGKGLQWVAAIRSGGNTYYADAVKGRFTISRDNAKNTLYLQMNSLRAEDTAVYYCASQWGDWGHFEYWGQGTLVTVSSASTTAPSVTSGQAGQHHHHHHGAYPYDVPDYAS | 0.27 ratio to FMC63 |
